# test-system: T1, Recombinant human MASP1 enzyme (fragment corresponding to amino acids 297-699, C-terminal His Tag) (human, UniProt P48740 297-699)
# T1 sequence: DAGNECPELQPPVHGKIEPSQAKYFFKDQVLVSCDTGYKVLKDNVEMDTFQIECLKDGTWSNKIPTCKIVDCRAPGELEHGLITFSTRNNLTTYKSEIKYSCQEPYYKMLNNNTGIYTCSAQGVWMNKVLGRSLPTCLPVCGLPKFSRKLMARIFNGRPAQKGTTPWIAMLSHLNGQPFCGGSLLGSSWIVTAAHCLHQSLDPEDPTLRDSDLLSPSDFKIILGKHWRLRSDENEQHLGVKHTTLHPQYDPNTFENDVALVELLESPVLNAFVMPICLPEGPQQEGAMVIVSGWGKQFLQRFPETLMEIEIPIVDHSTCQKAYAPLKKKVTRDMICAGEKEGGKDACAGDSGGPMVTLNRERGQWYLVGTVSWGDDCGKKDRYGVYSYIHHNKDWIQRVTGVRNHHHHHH
# measurement-description: cell-based or functional assay
Bridge positions count the residues as written; N and C are the ends. Square brackets hold non-standard residues; d marks the D form. Ends that are not written are not given here. tBuAla = CC(C)(C)C[C@H](N)C(=O)O; Chg = N[C@H](C(=O)O)C1CCCCC1; Pen = CC(C)(S)[C@H](N)C(=O)O
measured-metric: human MASP1 IC50 (nM)
Numbers only, in nM.

Please look at the items below and tell me human MASP1 IC50 for each one, in order.
1. AICSRSLPP[Chg][Pen]IPD-NH2 (disulfide 3-11; N-terminus assumed; SMILES CC[C@H](C)[C@H](NC(=O)[C@H](C)N)C(=O)N[C@H]1CSSC(C)(C)[C@@H](C(=O)N[C@H](C(=O)N2CCC[C@H]2C(=O)N[C@@H](CC(=O)O)C(N)=O)[C@@H](C)CC)NC(=O)[C@H](C2CCCCC2)NC(=O)[C@@H]2CCCN2C(=O)[C@@H]2CCCN2C(=O)[C@H](CC(C)C)NC(=O)[C@H](CO)NC(=O)[C@H](CCCNC(=N)N)NC(=O)[C@H](CO)NC1=O) [AIC+SRSLPP-(Chg)-(Pen)+IPD-NH2]
2. ICSRS[tBuAla]PPI[Pen]IP-OH (disulfide 2-10; N-terminus assumed; SMILES CC[C@H](C)[C@H](N)C(=O)N[C@H]1CSSC(C)(C)[C@@H](C(=O)N[C@H](C(=O)N2CCC[C@H]2C(=O)O)[C@@H](C)CC)NC(=O)[C@H]([C@@H](C)CC)NC(=O)[C@@H]2CCCN2C(=O)[C@@H]2CCCN2C(=O)[C@H](CC(C)(C)C)NC(=O)[C@H](CO)NC(=O)[C@H](CCCNC(=N)N)NC(=O)[C@H](CO)NC1=O) [IC+SRS-((tBu)A)-PPI-(Pen)+IP-OH]

Solution:
1: 5.7; 2: 10
